# assayed.target: P2Y purinoceptor 4 (Homo sapiens, UniProt P51582)
# Sequence (P51582 whole entry): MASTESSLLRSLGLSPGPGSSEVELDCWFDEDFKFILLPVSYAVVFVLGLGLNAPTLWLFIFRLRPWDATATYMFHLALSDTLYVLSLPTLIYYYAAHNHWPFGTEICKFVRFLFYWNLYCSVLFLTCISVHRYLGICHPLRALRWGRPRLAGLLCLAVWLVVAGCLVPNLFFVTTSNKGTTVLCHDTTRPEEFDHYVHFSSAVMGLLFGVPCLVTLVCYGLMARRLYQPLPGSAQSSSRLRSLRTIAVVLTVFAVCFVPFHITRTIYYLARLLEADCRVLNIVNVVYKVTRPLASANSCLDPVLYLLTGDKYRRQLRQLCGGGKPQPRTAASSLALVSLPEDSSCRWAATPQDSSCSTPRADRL
# assay.remarks: Antagonist activity at human P2Y4 receptor expressed in human 1321N1 cells assessed as inhibition of UTP-induced receptor activation at 100 uM relative to UTP
# Type: functional, cell-based
# Parameters: scale not given: the % may be the effect or the level left
// values below are reported Activity
The answer is to be given in %; state only the numeric part.

CCOP(=O)(CNC(=O)CCNC(=O)[C@H]1O[C@@H](n2ccc(=O)[nH]c2=O)[C@H](O)[C@@H]1O)OCC: 11

Consider the additional molecule presented here.
State its Activity: CCOP(=O)(Cc1ccc(NC(=O)CNC(=O)[C@H]2O[C@@H](n3ccc(=O)[nH]c3=O)[C@H](O)[C@@H]2O)cc1)OCC
-42
